Cited source for all entries: PubChem BioAssay

- MEASURED ON: Plasmodium falciparum protein kinase 6 (PK6, PF3D7_1337100) (UniProt Q8IDW1)
- Sequence (Q8IDW1 1-305): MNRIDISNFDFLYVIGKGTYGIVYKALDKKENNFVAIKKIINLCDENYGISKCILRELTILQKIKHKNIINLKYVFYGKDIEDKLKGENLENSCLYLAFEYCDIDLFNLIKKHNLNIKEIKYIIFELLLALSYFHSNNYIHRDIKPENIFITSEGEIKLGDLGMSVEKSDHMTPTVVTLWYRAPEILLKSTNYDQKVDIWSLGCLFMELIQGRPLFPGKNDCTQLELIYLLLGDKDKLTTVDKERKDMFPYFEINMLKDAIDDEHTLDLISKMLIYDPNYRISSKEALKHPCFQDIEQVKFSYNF
- ASSAY OVERVIEW: PfPK6 kinase inhibitors, biochemical, TCAMS library (AID 1159586)
- PARTICULARS: recombinant PfPK6, Kinase-Glo ATP depletion luminescence
Potency and affinity values are given separately. Activity calls are given as the source filed them. How the calls were made is not given here.
ASSAY ENDPOINT: outcome

COMPOUND | outcome
O=C(Nc1ccc2ccccc2c1)N1CCC(NCc2cccc([N+](=O)[O-])c2)CC1 | inactive
COc1cc(-c2ccc3c(-c4ccc(C(=O)N5CCN(C)CC5)cc4)[nH]nc3n2)cc(OC)c1OC | inactive
CS(=O)(=O)NCCCNCc1ccc(-c2ccc(-c3nc4ccc(C(F)(F)F)cc4[nH]3)s2)cc1 | inactive
CCOC(=O)/C(=N\OC(C)(C)C(=O)NCc1ccc(O)c(O)c1)c1csc(NC(c2ccccc2)(c2ccccc2)c2ccccc2)n1 | inactive

Task: Name the recorded outcome of the item CC(=O)N(C)c1cccc(C(=O)Nc2cccc(-c3cccc(-c4nc5ccc(C(F)(F)F)cc5[nH]4)c3)c2)c1 in your answer.
Result: inactive

Task: Name the recorded outcome of the item COc1cc(C)ccc1S(=O)(=O)N1CCCCC(c2ccc(C(F)(F)F)cc2)=N1 in your answer.
Result: inactive

Task: Name the recorded outcome of the item CN(CCCCCNC(=O)/C=C/c1ccc(Cl)c(Cl)c1)CCCCc1c[nH]c2ccccc12 in your answer.
Result: inactive

Task: Name the recorded outcome of the item C=CCn1c(SCc2c(C)noc2C)nc2scc(-c3cccs3)c2c1=O in your answer.
Result: inactive

Task: Name the recorded outcome of the item CN1CCN(CCCCCNc2c3ccccc3nc3ccccc23)CC1 in your answer.
Result: inactive

Task: Name the recorded outcome of the item C[C@@H]1CN(c2cnn(Cc3ccc(NC(=O)Nc4ccc(-c5ccccc5)cc4)cc3)c(=O)c2Cl)C[C@H](C)N1 in your answer.
Result: inactive

Task: Name the recorded outcome of the item Cc1cc(-c2cnc(N)c(-c3ccc(N4CCN(C)CC4)cc3)c2)cc(C)c1O in your answer.
Result: inactive

Task: Name the recorded outcome of the item COc1ccc(C(=O)[C@H]2C[C@@H]2CN(C)CC(O)c2cc(C)c(OC)cc2C)cc1 (some centres undefined) in your answer.
Result: inactive
